Tested on: Plasmodium falciparum
protocol.notes: Potency index, ratio of ciprofloxacin IC50 to compound IC50 for chloroquine-resistant Plasmodium falciparum Dd2 infected in human erythrocytes
Type: functional
measurement.kind: Ratio IC50

{"compound.structure": "CCOC(=O)c1cn(Cc2ccc(F)cc2)c2ccc3nc(-c4ccc(F)cc4)c(-c4ccc(F)cc4)nc3c2c1=O", "observed.result": 2}
{"compound.structure": "CCOC(=O)c1cn(CC(F)(F)F)c2ccc3nc(-c4ccc(F)cc4)c(-c4ccc(F)cc4)nc3c2c1=O", "observed.result": 5}
{"compound.structure": "CCOC(=O)c1cn(CC)c2ccc3nc(-c4ccc(F)cc4)c(-c4ccc(F)cc4)nc3c2c1=O", "observed.result": 2}
{"compound.structure": "CCOC(=O)c1cn(Cc2ccc(C(F)(F)F)cc2)c2ccc3nc(-c4ccc(F)cc4)c(-c4ccc(F)cc4)nc3c2c1=O", "observed.result": 2}
{"compound.structure": "CCCCn1cc(C(=O)OCC)c(=O)c2c3nc(-c4ccccc4)c(-c4ccccc4)nc3ccc21", "observed.result": 2}
{"compound.structure": "CCOC(=O)c1cn(Cc2ccc(F)cc2)c2ccc3nc(-c4ccccc4)c(-c4ccccc4)nc3c2c1=O", "observed.result": 3.3}
{"compound.structure": "C#CCn1cc(C(=O)OCC)c(=O)c2c3nc(-c4ccccc4)c(-c4ccccc4)nc3ccc21", "observed.result": 2}
{"compound.structure": "CCOC(=O)c1cn(Cc2ccc(C(F)(F)F)cc2)c2ccc3nc(-c4ccccc4)c(-c4ccccc4)nc3c2c1=O", "observed.result": 2}

---

protocol.notes: Solubility of the compound at 93 uM
Assay type: physicochemical

{"compound.structure": "C#CCn1cc(C(=O)O)c(=O)c2c3nc(-c4ccccc4)c(-c4ccccc4)nc3ccc21", "solubility": "Insoluble"}
{"compound.structure": "O=C(O)c1cn(Cc2ccc(F)cc2)c2ccc3nc(-c4ccccc4)c(-c4ccccc4)nc3c2c1=O", "solubility": "Insoluble"}
{"compound.structure": "CCCCn1cc(C(=O)O)c(=O)c2c3nc(-c4ccccc4)c(-c4ccccc4)nc3ccc21", "solubility": "Insoluble"}
{"compound.structure": "C#CCn1cc(C(=O)OCC)c(=O)c2c3nc(-c4ccccc4)c(-c4ccccc4)nc3ccc21", "solubility": "Insoluble"}
{"compound.structure": "O=C(O)c1cn(Cc2ccc(C(F)(F)F)cc2)c2ccc3nc(-c4ccccc4)c(-c4ccccc4)nc3c2c1=O", "solubility": "Insoluble"}
{"compound.structure": "CCn1cc(C(=O)O)c(=O)c2c3nc(-c4ccccc4)c(-c4ccccc4)nc3ccc21", "solubility": "Insoluble"}
{"compound.structure": "CCOC(=O)c1cn(Cc2ccc(C(F)(F)F)cc2)c2ccc3nc(-c4ccccc4)c(-c4ccccc4)nc3c2c1=O", "solubility": "Insoluble"}
{"compound.structure": "O=C(O)c1cn(CC(F)(F)F)c2ccc3nc(-c4ccccc4)c(-c4ccccc4)nc3c2c1=O", "solubility": "Insoluble"}
